These measurements were taken from paper PMC9100673.

TESTED_TARGET: human serum albumin (HSA) (Homo sapiens)
Construct: purchased Sigma (St. Louis, MO, USA)
PROCEDURE_SUMMARY: HSA fluorescence quenching (steady-state fluorescence titration)
Format: binding
EXPERIMENTAL_CONDITIONS: 25 °C
OBSERVATION_TYPE: ΔG (kcal/mol)

O=C(N/N=C/c1cccc2cc3ccccc3nc12)c1ccccc1
-7.918
O=C(N/N=C/c1cccc2cc3ccccc3nc12)c1ccc(Br)cc1
-7.249
O=C(N/N=C/c1cccc2cc3ccccc3nc12)c1ccc(F)cc1
-7.66
O=C(N/N=C/c1cccc2cc3ccccc3nc12)c1ccc(Cl)cc1
-6.427

----------
TESTED_TARGET: human serum albumin (HSA) (Homo sapiens, UniProt P02768)
Construct: purchased Sigma (St. Louis, MO, USA)
Sequence (P02768 25-609): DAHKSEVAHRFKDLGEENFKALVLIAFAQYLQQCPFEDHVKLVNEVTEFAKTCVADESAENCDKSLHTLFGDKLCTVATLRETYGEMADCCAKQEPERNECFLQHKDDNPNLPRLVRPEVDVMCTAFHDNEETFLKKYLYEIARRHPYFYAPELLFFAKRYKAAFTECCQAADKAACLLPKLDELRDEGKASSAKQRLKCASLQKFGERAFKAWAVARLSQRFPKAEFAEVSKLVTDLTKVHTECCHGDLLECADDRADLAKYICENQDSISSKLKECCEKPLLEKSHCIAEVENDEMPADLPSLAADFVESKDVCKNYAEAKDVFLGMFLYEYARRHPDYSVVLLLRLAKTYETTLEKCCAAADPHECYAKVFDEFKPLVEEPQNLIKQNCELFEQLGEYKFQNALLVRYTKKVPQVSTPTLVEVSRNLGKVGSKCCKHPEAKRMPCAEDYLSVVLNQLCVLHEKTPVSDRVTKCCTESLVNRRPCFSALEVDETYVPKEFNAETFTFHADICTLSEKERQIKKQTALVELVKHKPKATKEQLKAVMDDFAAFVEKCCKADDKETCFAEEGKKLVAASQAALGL
PROCEDURE_SUMMARY: HSA fluorescence quenching (steady-state fluorescence titration)
Type: binding
EXPERIMENTAL_CONDITIONS: 35 °C
OBSERVATION_TYPE: ΔG (kJ/mol)

O=C(N/N=C/c1cccc2cc3ccccc3nc12)c1ccccc1 [3a]
-32.79
O=C(N/N=C/c1cccc2cc3ccccc3nc12)c1ccc(F)cc1 [3b]
-31.62
O=C(N/N=C/c1cccc2cc3ccccc3nc12)c1ccc(Br)cc1 [3d]
-26.81
O=C(N/N=C/c1cccc2cc3ccccc3nc12)c1ccc(Cl)cc1 [3c]
-32.58

----------
TESTED_TARGET: human serum albumin (HSA) (Homo sapiens, UniProt P02768)
Construct: purchased Sigma (St. Louis, MO, USA)
PROCEDURE_SUMMARY: HSA fluorescence quenching (steady-state fluorescence titration)
Type: binding
EXPERIMENTAL_CONDITIONS: 30 °C; HSA 4 μM, pH 7.4
OBSERVATION_TYPE: KSV, Stern–Volmer quenching constant (M⁻¹)

O=C(N/N=C/c1cccc2cc3ccccc3nc12)c1ccccc1
268000
O=C(N/N=C/c1cccc2cc3ccccc3nc12)c1ccc(Br)cc1
206000

I. O=C(N/N=C/c1cccc2cc3ccccc3nc12)c1ccc(Cl)cc1
II. O=C(N/N=C/c1cccc2cc3ccccc3nc12)c1ccc(F)cc1
Param metric = KSV, Stern–Volmer quenching constant; output whichever of I , II has the minimum value. Identify your selection by its label. II
(II: 157000 M⁻¹, I: 248000 M⁻¹)

----------
TESTED_TARGET: human serum albumin (HSA) (Homo sapiens)
Construct: purchased Sigma (St. Louis, MO, USA)
PROCEDURE_SUMMARY: HSA fluorescence quenching (steady-state fluorescence titration)
Type: binding
EXPERIMENTAL_CONDITIONS: 25 °C
OBSERVATION_TYPE: n, number of binding sites

O=C(N/N=C/c1cccc2cc3ccccc3nc12)c1ccc(Br)cc1
1.052
O=C(N/N=C/c1cccc2cc3ccccc3nc12)c1ccc(F)cc1
1.079
O=C(N/N=C/c1cccc2cc3ccccc3nc12)c1ccccc1
1.068
O=C(N/N=C/c1cccc2cc3ccccc3nc12)c1ccc(Cl)cc1
0.888

----------
TESTED_TARGET: human serum albumin (HSA) (Homo sapiens)
Construct: purchased Sigma (St. Louis, MO, USA)
PROCEDURE_SUMMARY: HSA fluorescence quenching (steady-state fluorescence titration)
Type: binding
EXPERIMENTAL_CONDITIONS: van't Hoff plot, 25–35 °C
OBSERVATION_TYPE: ΔH (kcal/mol)

O=C(N/N=C/c1cccc2cc3ccccc3nc12)c1ccc(F)cc1
-10.74

P. O=C(N/N=C/c1cccc2cc3ccccc3nc12)c1ccccc1
Q. O=C(N/N=C/c1cccc2cc3ccccc3nc12)c1ccc(Br)cc1
R. O=C(N/N=C/c1cccc2cc3ccccc3nc12)c1ccc(Cl)cc1
Sort by ΔH, descending. Your answer should be the labels, listed in the requested order. R, P, Q

----------
TESTED_TARGET: human serum albumin (HSA) (Homo sapiens, UniProt P02768)
Construct: purchased Sigma (St. Louis, MO, USA)
PROCEDURE_SUMMARY: HSA fluorescence quenching (steady-state fluorescence titration)
Assay type: binding
EXPERIMENTAL_CONDITIONS: λex 280 nm
Experimental: Human serum albumin (HSA) emission spectra were recorded in the absence and presence of different amounts of acridine derivatives (3a–3d) at a range of 285 to 550 nm upon excitation at 280 nm. The emission maximum of fluorescence intensity of HSA was identified at 340 nm. […] The fluorescence intensity of HSA in the presence of the acridine derivatives decreases in the relation […], with decreases of 58%, 51%, 43% and 38%, respectively. […]
OBSERVATION_TYPE: blue shift of HSA fluorescence emission maximum (nm)

O=C(N/N=C/c1cccc2cc3ccccc3nc12)c1ccc(Br)cc1 [3d]
6
O=C(N/N=C/c1cccc2cc3ccccc3nc12)c1ccc(Cl)cc1 [3c]
7
O=C(N/N=C/c1cccc2cc3ccccc3nc12)c1ccccc1 [3a]
8

----------
TESTED_TARGET: human serum albumin (HSA) (Homo sapiens, UniProt P02768)
Construct: purchased Sigma (St. Louis, MO, USA)
PROCEDURE_SUMMARY: HSA fluorescence quenching (steady-state fluorescence titration)
Format: binding
EXPERIMENTAL_CONDITIONS: 30 °C
OBSERVATION_TYPE: ΔG (kcal/mol)

O=C(N/N=C/c1cccc2cc3ccccc3nc12)c1ccccc1
-7.878
O=C(N/N=C/c1cccc2cc3ccccc3nc12)c1ccc(Cl)cc1
-7.108
O=C(N/N=C/c1cccc2cc3ccccc3nc12)c1ccc(F)cc1
-7.61
O=C(N/N=C/c1cccc2cc3ccccc3nc12)c1ccc(Br)cc1
-6.828
